system-tested: Tdp1 (Homo sapiens (Human), UniProt Q9NUW8)
Sequence (Q9NUW8 whole entry): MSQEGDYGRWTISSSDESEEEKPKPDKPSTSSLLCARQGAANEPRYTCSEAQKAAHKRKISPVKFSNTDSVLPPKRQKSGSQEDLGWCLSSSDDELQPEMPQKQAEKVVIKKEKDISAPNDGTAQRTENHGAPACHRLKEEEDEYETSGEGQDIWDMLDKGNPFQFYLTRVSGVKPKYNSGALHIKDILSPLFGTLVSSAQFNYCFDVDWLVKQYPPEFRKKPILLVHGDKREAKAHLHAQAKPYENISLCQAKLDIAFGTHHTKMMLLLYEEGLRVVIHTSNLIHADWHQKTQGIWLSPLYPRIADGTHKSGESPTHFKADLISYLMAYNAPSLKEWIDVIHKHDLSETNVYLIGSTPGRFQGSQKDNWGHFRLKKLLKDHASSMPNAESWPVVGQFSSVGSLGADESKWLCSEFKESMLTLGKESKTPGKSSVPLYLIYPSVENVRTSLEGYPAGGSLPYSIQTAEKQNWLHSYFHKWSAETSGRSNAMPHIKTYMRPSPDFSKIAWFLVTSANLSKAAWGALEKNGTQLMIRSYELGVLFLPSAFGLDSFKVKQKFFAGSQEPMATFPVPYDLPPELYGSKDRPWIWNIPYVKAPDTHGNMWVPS
assay-procedure: Gel-based assay measuring the inhibition of recombinant Tdp1
Assay type: biochemical

- smiles-record: "COc1ccc2c(c1)-c1c(c3ccc([N+](=O)[O-])cc3c(=O)n1CCCBr)C2=O"
  Tdp1 inhibitory activity (in words): "very weak or inactive"
- smiles-record: "COc1ccc2c(c1)-c1c(c3ccc([N+](=O)[O-])cc3c(=O)n1CCCN=[N+]=[N-])C2=O"
  Tdp1 inhibitory activity (in words): "very weak or inactive"

----------
Would you mind telling me the reported IC50 of each entry?
system-tested: UniProt Q9NUW8
assay-procedure: Gel-based assay measuring the inhibition of recombinant Tdp1;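 further: 5′-32P-labeled single-stranded DNA with 3′-phosphotyrosine incubated with 5 pM enzyme for 15 min at room temperature, inhibition seen as loss of 3′-phosphate product band by densitometry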
Assay type: biochemical
condition-info: series (A), gel-based assay, rec. human Tdp1; read-out: IC50 (μM) recombinant Tdp1
Give bare numbers, in µM.

- smiles-record: "Cl.NCCCCCCCCCCCn1c2c(c3ccccc3c1=O)C(=O)c1ccccc1-2"
  system-tested: "UniProt Q9NUW8"
  IC50 (µM): 13

Inquiry: Returns the measured IC50 for the input molecule. Input: Cl.NCCCCCCCCCCCCn1c2c(c3ccccc3c1=O)C(=O)c1ccccc1-2
Reply text: 15

The measurements presented in this section are drawn from patent US8912213B2.
